B1: CPEB3 Ribozyme (parent)
chain: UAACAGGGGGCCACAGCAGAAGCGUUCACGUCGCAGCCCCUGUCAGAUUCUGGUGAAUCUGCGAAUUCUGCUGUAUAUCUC

variants of: B1; experiment: self-cleavage, relative activity (ratio to wild type); higher = more cleavage; in vitro, sequencing
Measured self-cleavage, listed per entry.
Output spec: single numeric token, no unit.

>  <Chain Sequence>
UAACAGGGGGCCACAGCAGAUGCAUUCACGUCGCAGCCCCUGUCAGAUUCUGGUGAAUCUGCGAAUUCUGCUGUAUAUCUC [A21U G24A]

>  <Reported Value>
0.33

$$$$
>  <Chain Sequence>
UAACAGGGGGCCACAGCAGAAGCGUUCACGUCGCGGCCCCUGUCAGAUUCUUGUGAAUCUGCGAAUUCUGCUGUAUAUCUC [A35G G52U]

>  <Reported Value>
1.36

$$$$
>  <Chain Sequence>
UAACAGGGGGCCACAGCAGAAGAGUUCACGUCGCAGCCCCUGUCAGAUUCUGGUGAAUCUGCGAGUUCUGCUGUAUAUCUC [C23A A65G]

>  <Reported Value>
0.28

$$$$

## Input Field request: self-cleavage | item: UUACAGGGGGCCACAGCAGAAGCGUUCACGUCGCAGACCCUGUCAGAUUCUGGUGAAUCUGCGAAUUCUGCUGUAUAUCUC [A2U C37A]
## Output 0.16

## Input Field request: self-cleavage | item: UAACAGGGGGCUACAGCAGAAGCGUUCACGUCGCAGCCCCUGUCAGAUUCUGAUGAAUCUGCGAAUUCUGCUGUAUAUCUC [C12U G53A]
## Output 1.18

## Input Field request: self-cleavage | item: UAACAGGGGGCCACAGCAGAAGCGUUCACGUCGCAGCCCCUGUCAGAUUCUGGUGACUCUGCGAAUUCUGCUGUAUGUCUC [A57C A77G]
## Output 0.45

## Input Field request: self-cleavage | item: UAACAGGGGGCCACAGCAGAAGCGUUCACGUCGCAGCCCCUGUCAGAUACUGGUGUAUCUGCGAAUUCUGCUGUAUAUCUC [U49A A56U]
## Output 1.19

## Input Field request: self-cleavage | item: UAACAGGGGGUCACAGCAGAAGCGUUCACGUCGCAGCCCCUGUCAGAUUCGGGUGAAUCUGCGAAUUCUGCUGUAUAUCUC [C11U U51G]
## Output 0.35

## Input Field request: self-cleavage | item: UCACAGGGGGCCACAGCAGAAGCGUUCACGUCGCAGCCCCUGUCAGAUCCUGGUGAAUCUGCGAAUUCUGCUGUAUAUCUC [A2C U49C]
## Output 0.42

## Input Field request: self-cleavage | item: UAACAGGGGUCCACAGCAGAAGCGUUCACGUCGCAGCCCCUGUCAGAUUCUGGUGAAUCUGCGAAUUCCGCUGUAUAUCUC [G10U U69C]
## Output 0.07

## Input Field request: self-cleavage | item: UAACAGGGGGCCACAGCAGAAGCGUUGACGUCGCAGCCCCCGUCAGAUUCUGGUGAAUCUGCGAAUUCUGCUGUAUAUCUC [C27G U41C]
## Output 0.18

## Input Field request: self-cleavage | item: UAACAUGGGGCCACAGCAGAAGCGUUCACGUCGCUGCCCCUGUCAGAUUCUGGUGAAUCUGCGAAUUCUGCUGUAUAUCUC [G6U A35U]
## Output 0.36

## Input Field request: self-cleavage | item: UAACAGGGGGCCAGAGCAGAAGCGUUCACGUCGCAGCCCCUGUCAGAUUCUGGUGAAUCUGCGAAUUCUGCUGCAUAUCUC [C14G U74C]
## Output 0.89

## Input Field request: self-cleavage | item: UAACAGGGGGCCACAGCAGAAGCGUUCACGUCGCAGCCCCUGUCAGAUUUUGGUGGAUCUGCGAAUUCUGCUGUAUAUCUC [C50U A56G]
## Output 0.85

## Input Field request: self-cleavage | item: UAACAGGGGGCCACAGCAGAAGCGUUCACGUCGCAGCCCCUGUCAGACUCUGGUGCAUCUGCGAAUUCUGCUGUAUAUCUC [U48C A56C]
## Output 0.33

## Input Field request: self-cleavage | item: UAACAGGGGGCCACAGCAGAAGCGUUCACGUCGCAGCCCCGGUCAGAUUCUGGUGAAUCUGCGAAUUCUGCUGCAUAUCUC [U41G U74C]
## Output 0.35

The reported measurements were obtained from the RNAGym collection of RNA variant scans (doi:10.1093/nar/gkz1192).
